Test: STAT1 signaling activators, primary screen, cell-based, HTS, luciferase reporter (AID 932);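 note: raw ratio to IFN-gamma control signal so 100% means no change and 0% no light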
Conditions: NIH 3T3 STAT1-luciferase reporter, IFN-gamma, luminescence; at 5.5 µM; stronger effect = higher value; 100% = IFN-gamma alone, no compound
Hit rate of the full screen: of about 200,000 compounds, about 5,100 (2.5%) were called active. The list comes from a sample in which actives are over-represented; it also holds close analogues and randomly drawn compounds.
reported.metric: activation (% of control) (%)

[[record]]
molecule = "Cc1cccc(NC(=O)c2cccc(C(F)(F)F)c2)c1"
reported_metric = "activation (% of control)"
reported_measurement = 107

[[record]]
molecule = "Cc1nc(-c2ccccc2)sc1C(=O)/C=C/c1ccccc1"
reported_metric = "activation (% of control)"
reported_measurement = 105

[[record]]
molecule = "O=C(Nc1cccc(C(F)(F)F)c1)c1cnccn1"
reported_metric = "activation (% of control)"
reported_measurement = 110

[[record]]
molecule = "Cc1noc(C)c1/C=N/Nc1ccc2ccccc2n1"
reported_metric = "activation (% of control)"
reported_measurement = 157

[[record]]
molecule = "COc1ccc(NC(=O)/C(C#N)=C\\c2cc(OC)c(OCc3ccc(C(=O)O)cc3)cc2Br)cc1"
reported_metric = "activation (% of control)"
reported_measurement = 96.6

[[record]]
molecule = "Cc1ccc(NC(=O)Nc2cccc(C(F)(F)F)c2)nc1"
reported_metric = "activation (% of control)"
reported_measurement = 129

[[record]]
molecule = "COc1cc(CNc2ncn[nH]2)ccc1OCc1ccccc1C"
reported_metric = "activation (% of control)"
reported_measurement = 131

[[record]]
molecule = "COc1ccccc1-n1c(C)nc2cc(C(=O)NCc3ccc4c(c3)OCO4)ccc21"
reported_metric = "activation (% of control)"
reported_measurement = 98.5

[[record]]
molecule = "Cc1ccc(SCC(=O)c2sc(-c3ccccc3)nc2C)cc1"
reported_metric = "activation (% of control)"
reported_measurement = 102

[[record]]
molecule = "CN(C)CCCCCN(C)Cc1cc2ccccc2o1"
reported_metric = "activation (% of control)"
reported_measurement = 91.6

[[record]]
molecule = "O=C(CN1CCN(c2ccc(O)cc2)CC1)NC1CCCc2ccccc21 (stereo unspecified)"
reported_metric = "activation (% of control)"
reported_measurement = 101


====

Assay: STAT1 signaling activators, primary screen, cell-based, HTS, luciferase reporter (AID 932);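 note: raw ratio to IFN-gamma control signal so 100% means no change and 0% no light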
Conditions: NIH 3T3 STAT1-luciferase reporter, IFN-gamma, luminescence; at 5.5 µM; stronger effect = higher value; 100% = IFN-gamma alone, no compound
The campaign covered roughly 200,000 compounds. About 5,100 (2.5%) were called active. The entries come from a sample that favours actives as a whole.
Catalogue of activation (% of control) values
reported.metric: activation (% of control) (%)

[[record]]
molecule = "CC(C)(C)NC(=O)NC(=O)COC(=O)Cc1ccc(Cl)cc1Cl"
reported_measurement = 103

[[record]]
molecule = "O=C(Nc1cc2ccccc2oc1=O)C1CCCCC1"
reported_measurement = 149

[[record]]
molecule = "O=C(CSCc1ccc(Cl)cc1)N1CCCCC1"
reported_measurement = 121

[[record]]
molecule = "CCOC(=O)C1(Cc2ccccc2C(F)(F)F)CCN(C(=O)c2cc(C)n(C)n2)CC1"
reported_measurement = 131

[[record]]
molecule = "O=C(N1CCCC1)C12CC3CC(C1)CC(C(=O)N1CCCC1)(C3)C2"
reported_measurement = 99.8

[[record]]
molecule = "O=C(O)c1ccc(NC(=O)C2CCCCC2)cc1"
reported_measurement = 99.3

[[record]]
molecule = "Cc1cc(/C=N/NC(=O)c2cccnc2)c(C)n1CC(C)C"
reported_measurement = 139

[[record]]
molecule = "Cc1noc(C)c1CCC(=O)O"
reported_measurement = 95.1

[[record]]
molecule = "CN=C(c1ccccc1)c1c(C)cccc1C"
reported_measurement = 93.1

[[record]]
molecule = "O=c1c2c(ncn1Cc1ccccc1)nc1n2CCC1"
reported_measurement = 96.7

[[record]]
molecule = "N#Cc1c(N)nc2c(c1N)CC(C(F)(F)F)O2 (configuration not stated)"
reported_measurement = 92.8

[[record]]
molecule = "Cc1ccc(NC(=S)N(CCN2CCCCC2)Cc2ccco2)cc1C"
reported_measurement = 98


Data provenance: PubChem BioAssay AID932
